Ref: patent US20040242459A1

measured-target: hPPARδ/GAL4 (Homo sapiens)
Construct: expressed in transfected cells; host or cells: COS-1 cells
Sequence (Q03181 211-439 limits assumed): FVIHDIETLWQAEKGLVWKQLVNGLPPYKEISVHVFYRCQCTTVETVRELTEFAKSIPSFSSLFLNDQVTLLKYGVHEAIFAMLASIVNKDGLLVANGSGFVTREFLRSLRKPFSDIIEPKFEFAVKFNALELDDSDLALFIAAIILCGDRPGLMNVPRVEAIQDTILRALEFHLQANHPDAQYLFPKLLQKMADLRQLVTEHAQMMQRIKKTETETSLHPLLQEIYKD
Sequence (P04386 1-147 partner limits assumed): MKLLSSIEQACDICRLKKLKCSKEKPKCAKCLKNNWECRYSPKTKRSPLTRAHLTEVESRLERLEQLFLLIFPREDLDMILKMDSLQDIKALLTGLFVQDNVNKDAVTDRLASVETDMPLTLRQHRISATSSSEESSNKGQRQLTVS
protocol-details: Gal-4 hPPAR transactivation assay in COS-1 cells (delta)
Assay type: cell-based
assay-setup: two values separated by a slash in some cells
experimental-readout: EC50 (µM)

compound="CCCc1cc(Oc2ccccc2)ccc1OCCc1cc2cc(CC(=O)O)ccc2[nH]1 [Compound 2]" experimental_readout=EC50 unit_of_measurement=µM endpoint_result=3

###

measured-target: recombinant human PPARγ (GST-PPARγ) (Homo sapiens, UniProt P37231)
Construct: The full length human cDNA for PPARγ 2 was subcloned into the pGEX-2 T expression vector
Sequence (P37231 whole entry): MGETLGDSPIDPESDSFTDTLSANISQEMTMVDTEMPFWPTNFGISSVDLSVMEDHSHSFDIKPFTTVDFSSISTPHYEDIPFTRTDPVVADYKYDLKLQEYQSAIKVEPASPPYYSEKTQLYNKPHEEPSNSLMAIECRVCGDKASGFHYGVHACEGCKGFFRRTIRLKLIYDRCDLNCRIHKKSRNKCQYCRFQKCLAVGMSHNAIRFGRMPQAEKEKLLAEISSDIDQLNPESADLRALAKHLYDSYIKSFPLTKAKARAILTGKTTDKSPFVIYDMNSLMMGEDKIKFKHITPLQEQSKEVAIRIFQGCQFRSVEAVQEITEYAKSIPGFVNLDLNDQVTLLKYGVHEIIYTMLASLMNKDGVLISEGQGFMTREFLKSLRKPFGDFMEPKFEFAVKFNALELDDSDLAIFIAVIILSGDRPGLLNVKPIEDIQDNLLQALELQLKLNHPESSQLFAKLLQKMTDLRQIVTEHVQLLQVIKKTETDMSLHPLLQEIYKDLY
protocol-details: Scintillation Proximity Assay, displacement of [3H2]Compound A from PPARγ
assay-setup: SPA, radioligand
pKd: −log10 of the molar value.
experimental-readout: pKd

molecule="CCCc1c(OCCCCOc2cccc(CC(=O)O)c2)ccc2c(-c3ccccc3)noc12 [Compound A, reference compound]" measured_target="recombinant human PPARγ (GST-PPARγ) (Homo sapiens, UniProt P37231)" experimental_readout=pKd endpoint_result=~8.57

###

System: adjuvant-induced arthritis in female Lewis rats
assay-setup: p.o. q.d.; Compounds 1, 2, 4, 6 30 mg/kg/day, Compound 3 50, Compound 5 100, indomethacin 2 mg/kg/day; mean ± SD
Marks after values point to notes of the source that are not given here.
Recorded change in body weight Day 14-0, one value per entry.
experimental-readout: change in body weight Day 14-0

compound=Cc1cc(SCc2sc(-c3ccc(C(F)(F)F)cc3)nc2C)ccc1OCC(=O)O.[Na+] endpoint_result="1.9 ± 6.6**^++ grams"
compound="CN(CCOc1ccc(CC2SC(=O)NC2=O)cc1)c1ccccn1 (stereo not shown) [Compound 6, Rosiglitazone, reference compound]" endpoint_result="0.4 ± 6.4**^++ grams"
compound=CCCc1cc(Oc2ccccc2)ccc1OCCc1cc2cc(CC(=O)O)ccc2[nH]1 endpoint_result="0.8 ± 7.3**^++ grams"
compound="COc1ccc2c(c1)c(CC(=O)O)c(C)n2C(=O)c1ccc(Cl)cc1 [Indomethacin, indomethacin, reference compound]" endpoint_result="8.6 ± 7.7**^++ grams"

###

Test system: adjuvant-induced arthritis in female Lewis rats
assay-setup: injected paw; p.o. q.d.; Compounds 1, 2, 4, 6 30 mg/kg/day, Compound 3 50, Compound 5 100, indomethacin 2; mean ± SD
experimental-readout: Change in Primary Foot Volume Day 4-0

compound="Cc1cc(SCc2sc(-c3ccc(C(F)(F)F)cc3)nc2C)ccc1OCC(=O)O.[Na+] [Compound 1]" endpoint_result="1510 ± 523^+ μL"
compound="CC(C)OC(=O)C(C)(C)Oc1ccc(C(=O)c2ccc(Cl)cc2)cc1 [Compound 5, Fenofibrate, reference compound]" endpoint_result="1421 ± 212^+ μL"
compound="COc1ccc2c(c1)c(CC(=O)O)c(C)n2C(=O)c1ccc(Cl)cc1 [Indomethacin, indomethacin, reference compound]" endpoint_result="798 ± 164^++ μL"
